# key: entry, value: TGI
System: SK-OV-3 ovarian
protocolSummary: NCI tumour cell line growth inhibition, 48 h
measuredParameter: TGI (µM)

COc1ccc2c(c1)/C(=C\c1c(-c3ccccc3)nc3n1CCS3)C(=O)N2
34.5
OCCOCCO/N=C1\C(c2c(O)[nH]c3ccccc23)=Nc2ccccc21
3.27
CCOC(=O)c1cnc2c(C)cc(C)cc2c1NCCCN(C)C
32.4
Cc1ccc2c(c1)C(=O)C(c1c(-c3[nH]c(=O)c4ccc(C)cc4c3O)c(O)c3ccccc3c1O)=NC2=O
5.36

----------
# key: entry, value: TGI
System: HT29 colon
protocolSummary: NCI tumour cell line growth inhibition, 48 h
measuredParameter: TGI (µM)

CCOC(=O)/C=C(\C)Sc1cc(O)c2ccccc2c1O
42.9
O=C1/C(=C/c2ccc(Cl)cc2Cl)CN(S(=O)(=O)c2ccccc2)C/C1=C\c1ccc(Cl)cc1Cl
0.907
CC(C)c1ccc(COCc2cc(CN3CCCC3)c(O)c3ncccc23)cc1
6.83
COC(=O)c1ccc2[nH]c(O)c(C(=Nc3ccc(N(C)C(=O)CN4CCN(C)CC4)cc3)c3cccc(OC)c3)c2c1
13.1

----------
# key: entry, value: TGI
Test system: HCT-116 colon
protocolSummary: NCI tumour cell line growth inhibition, 48 h
measuredParameter: TGI (µM)

Cc1ccc(C2CC(c3cccc(Nc4ccncc4)c3)=NN2c2cc(Cl)cc(Cl)c2)cc1 (stereo not given)
3.85
Cc1cc2nc(CS)[nH]c2cc1C
29.4
CN(C)C=Nc1ccc2c3c(cccc13)-c1ccccc1-2
28.7
OC1CC1Sc1ccccc1 (stereo not given)
62.9
COc1ccc(-c2nc(S(=O)(=O)c3ccccc3)c(S(=O)CC(=O)N3CCC(C)CC3)o2)cc1 (stereo not given)
3.2
O=C1CNN=C(CSc2nc3ccc(I)cc3c(=O)n2Cc2ccccc2)N1
50.7
c1ccc(-c2ccc(-c3ccc(C4=NCCN4)cc3)o2)cc1
3.42
COc1ccc(SS(=O)(=O)c2ccc(OC)cc2)cc1
30.3

----------
Test system: HCT-15 colon
protocolSummary: NCI tumour cell line growth inhibition, 48 h
measuredParameter: GI50

C=C1CC[C@@H]2C(C)(C)[C@H](O)CC[C@@]2(C)[C@@H]1COc1ccc2ccc(=O)oc2c1
27 µM
Cc1cc(Cl)ccc1Nc1nc(C(F)(F)F)ccc1C(=O)N/N=C/c1cccc(O)c1
2.51 µM
COc1ccc(C(=O)N2N=C(c3ccc(Br)cc3)CC2c2cn(-c3ccccc3)nc2-c2ccccc2)cc1 (centres undefined)
> 50 µM
CCOc1cc2ncc(C#N)c(Nc3ccc(F)c(Cl)c3)c2cc1NC(=O)CC1CCSS1 (centres undefined)
0.649 µM
c1ccc(-c2n(Cc3ccc4ccccc4n3)cc[n+]2Cc2ccc3ccccc3n2)cc1
20.2 µM
O=C(O)c1ccc2nc(-c3ccc(OCCCCCOc4ccc(-c5nc6ccc(C(=O)O)cc6[nH]5)cc4)cc3)[nH]c2c1
> 100 µM
Cn1ccnc1C(=O)/C=C/c1ccc(C(=O)Nc2ccc(F)cc2)cc1
0.274 µM
Cc1ccc(Cl)cc1Nc1nc(C(F)(F)F)ccc1C(N)=O
5.73 µM
N#C/C(=C\c1ccc2c(c1)OCO2)n1nnc2ccccc21
0.395 µM

----------
System: MDA-MB-435
protocolSummary: NCI tumour cell line growth inhibition, 48 h
measuredParameter: TGI (µM)

CCOC(=O)c1cnc2c(C)cc(C)cc2c1NCCCN(C)C
18.1
Cc1ccc2c(c1)C(=O)C(c1c(-c3[nH]c(=O)c4ccc(C)cc4c3O)c(O)c3ccccc3c1O)=NC2=O
3.29
